Reference source for all entries: PubChem BioAssay (NCI)

test system: NCI-H226 lung; assay: NCI tumour cell line growth inhibition, 48 h; in the data active means GI50 below about 0.43 µM; inactive means the rest
Please state which outcome applies, choosing from active, inactive

// known answers, use as guide
compound	assigned.category
CCN1C(=O)N(CC)C2C1NC(=S)N2/N=C/C=C/c1cccs1 (configuration not stated)	inactive
CN1CCc2c(Sc3ccc(C(=O)NO)cc3)c3ccccc3n2C1	inactive
CCCCCc1c(C)[nH]c(/C=C2\N=C(c3ccc[nH]3)C=C2CC)c1C	active
Cc1[nH][nH]c(=O)c1C=Nc1ccc(-c2nc3ccccc3[nH]2)cc1	inactive
O=C(Nc1cccc(Cl)c1Cl)c1cccc(NC2=C(Cl)C(=O)N(Cc3ccccc3)C2=O)c1	inactive
Nc1ccncc1/C=C1/C(=O)Nc2ccccc21	inactive

Now for another entry.
Ask: Recorded call for CCOC(=O)C1=C(C)N(N)C(=S)NC1c1ccc(C)cc1 (configuration not stated) ?
Reply: inactive
